Listed below: Enzyme Activity Endpoint Assay: scIgG values for each entry.
# targetOfAssay: pooled human IgG (human IgG1, 2, 3 and 4)
measurementType: Enzyme Activity Endpoint Assay: scIgG (ng/µL)

>  <protein>
PRT-559 (protein) MANQEIRYSEETPKTITSIWTKGVTPPTDFIKTEDVLHAPYVANQGWYDITKTFNGKDDLLCGAATAGNMLHWWFDQNKEEIENYLKKHPEKQKINFNGEQMFDVKEAIDTKDSQTDSALFEYFKDKAFPYLSTKHLGVFPDHVIDMFINGYRLSLTNHGPTPVKDGTKDPRGGIFDAVFTRGDQTKLLTERHDFKEKTLNEISDLIKQELTEGKALGLSHTYANVRINHVINLWGADFNSEGNLEAIYVTDSDSNASIGMKKYYVGVNAAGKVAISAKEIEDDNIGAQVLGLFTLSTGQDIWEQTNLEHHHHHH

>  <units>
ng/µL

>  <resultValue>
0

$$$$
>  <protein>
PRT-587 (protein) MANQEIRYSEETPKTITSVWTKGVTPPTDFIYNEDVLHAPYIANQGWYDITKTFNGKDDLLCGAATAGNMLHWWFDQNKEQIERYLKKHPEKQKINFNGEQMFDVKEAIDTKDSQTDSKLFEYFKDKAFPYLSTKHLGVFPDHVIDMFINGYRLSLTNHGPTPVKRGTKDPRGGIFDAVFTRGDQSKLLTSRHDFKEKTLNEISDLIKQELTEGKALGLSHTYANVRINHVINLWGADFNSEGNLEAIYVTDSDSNASIGMKKYYVGVNSAGKVAISAKEIEGDNIGAQVLGLFTLSTGKDIWEQTNLEHHHHHH

>  <units>
ng/µL

>  <resultValue>
120

$$$$
>  <protein>
PRT-465 (protein) MVTSVWTKGVTPPANFTQGEDVFHAPYVANQGWYDITKTFNGKDDLLCGAATAGNMLHWWFDQNKDQIERYLKEHPEKQKINFNGEQMFDVKEAIDTKDSQTDSKLFEYFKEKAFPYLSTKHLGVFPDHVLDMFINGYRLSLTNHGPTPVKEGSKDPRGGIFDAVFTRGDQSKLLTSRHDLKNKTLKEISDLIKQELTEGKALGLSHTYANVRINHVINLWGADFDSEGNLKAIYVTDSDSNASIGMKKYFVGVNSAGKVAISAKEIKEDNIGAQVLGLFTLSTGQDIWNQTNLEHHHHHH

>  <units>
ng/µL

>  <resultValue>
501

$$$$
>  <protein>
PRT-383 (protein) MVTSVWTKGVTPPTNFTYGEDVLHAPYVANQGWYDITKTFNGKDDLLCGAATAGNMLHWWFDQNKEQIENYLKKHPEKQKINFNGEQMFDVKEAIDTKDSQLDSKLFDYFKEKAFPYLSTKHLGVFPDHVIDMFINGYRLSLTNHGPTPVKRGSKDPRGGIFDAVFTRGDQSKLLTNRHDFKEKTLKEISDLIKQELTEGKALGISHTYANVRINHVINLWGADFDAEGNLEAIYVTDSDSNASIGMKKYFVGVNSNGKVAISAKEIEEDNIGAQVLGLFTLSTGQDIWNQTN

>  <units>
ng/µL

>  <resultValue>
230

$$$$
>  <protein>
PRT-422 (protein) MTITSVWTKGVTPPTPEDFRYNNEDVLHAPYVANQGWYDITKTFDGKDNLLCGAATAGNMLHWWFDQNKEEIERYLKKHPEKQKIIFNNQELFDVKAAIDTKDSQTNSKLFNYFRDKAFPNLSARQLGVMPDLVLDMFINGYYLNLGKTQSTDVNRPYQDKDKRGGIFDAVFTRGDQTTLLTARHDLKNKGLNEISDLIKQELTEGKALALSHTYANVRINHVINLWGADFDAEGNLIAIYVTDSDANPSIGMKKYFVGVNANGKVAISAKKIEGDNIGAQVLGLFTLSTGQDIWQKLS

>  <units>
ng/µL

>  <resultValue>
136

$$$$
>  <protein>
PRT-599 (protein) MANQEIRYSEETPSTITSVWTKGVTPPTDFIQNEDVLHAPYIANQGWYDITKTFNGKDDLLCGAATAGNMLHWWFDQNKEQIENYLKKHPEKQKINFNGEQMFDVKEAIDTKDSQTDSALFEYFKDKAFPYLSTKHLGVFPDHVIDMFINGYRLSLTNHGPTPVKRGTKDPRGGIFDAVFTRGDQSKLLTSRHDFKEKTLNEISDLIKQELTEGKALGLSHTYANVRINHVINLWGADFNAEGNLEAIYVTDSDSNASIGMKKYYVGVNSAGKVAISAKEIKGDNIGAQVLGLFTLSTGQDIWNQTNLEHHHHHH

>  <units>
ng/µL

>  <resultValue>
0

$$$$
>  <protein>
PRT-614 (protein) MQITSVWTKGVKPLTPEQFRYNNEDVIHAPYLAHQGWYDITKAFDGKDNLLCGAATAGNMLHWWFDQNKTEIEAYLSKHPEKQKIIFNNQELFDLRAAIDTKDSQTNSQLFNYFRDKAFPNLSARQLGVMPDLVLDMFINGYYLNVFKTQSTDVNRPYQDKDKRGGIFDDVFTRGDQTTLLTARHDLKNGGLNDISTIIKQELTEGRALALSHTYANVSISHVINLWGADFNAEGNLEAIYVTDSDANASIGMKKYKVGINAHGHVAISAKKIEGENIGAQVLGLFTLSSGKDIWQKLSLEHHHHHH

>  <units>
ng/µL

>  <resultValue>
0

$$$$
>  <protein>
PRT-693 (protein) MQITSVWTKGVIPPTPEQFRYNNEDVIHAPYLPNQGWYDITKTFNGGDNLLCGAATAGNMLHWWFDQNKTEIEAYLSKYPEKQKIIFNNQELFDLRAAINTKDSQTNSQLFNYFRDKAFPNLSARQLGVMPDLVLDMFINGYYLNVFKTQSTDVNRPYQDRDKRGGIFDHVFGRGDQTTLLTARHDLKNGTLNDISTLIKQELQSGKALALSHTYANVSISHVINLWGADFNAEGNLEAIYVTDSDANSSIGMKKYYVGVNAHGKVAISAKKIEGENIGAQVLGLFTLSSGKEIWQKLSLEHHHHHH

>  <units>
ng/µL

>  <resultValue>
0

$$$$
